This section presents substances with their documented Percent of maximal response to individual gluten peptides, IFNg values.
tested on: gluten-reactive T cells; experiment: 96-well plate whole blood cytokine release, IFNγ by MAGPIX multiplex bead assay; format: cell-based, human; settings: Subject 9; after oral gluten challenge; Max. 67 pg/mL
Non-standard residues stand in square brackets, D forms with d. pGlu = O=C1CC[C@@H](C(=O)O)N1

{"substance": "(pE)LQPFPQPELPYPQPQ-amide ([pGlu]LQPFPQPELPYPQPQ-NH2; SMILES CC(C)C[C@H](NC(=O)[C@@H]1CCC(=O)N1)C(=O)N[C@@H](CCC(N)=O)C(=O)N1CCC[C@H]1C(=O)N[C@@H](Cc1ccccc1)C(=O)N1CCC[C@H]1C(=O)N[C@@H](CCC(N)=O)C(=O)N1CCC[C@H]1C(=O)N[C@@H](CCC(=O)O)C(=O)N[C@@H](CC(C)C)C(=O)N1CCC[C@H]1C(=O)N[C@@H](Cc1ccc(O)cc1)C(=O)N1CCC[C@H]1C(=O)N[C@@H](CCC(N)=O)C(=O)N1CCC[C@H]1C(=O)N[C@@H](CCC(N)=O)C(N)=O) [Peptide 1]", "value": "43 % of max"}

Shift focus to the following entry.
INPUT: Tell me reported Percent of maximal response to individual gluten peptides, IFNg for (pE)PEQPEQPFPEQPQQ-amide ([pGlu]PEQPEQPFPEQPQQ-NH2; SMILES NC(=O)CC[C@H](NC(=O)[C@H](CCC(N)=O)NC(=O)[C@@H]1CCCN1C(=O)[C@H](CCC(N)=O)NC(=O)[C@H](CCC(=O)O)NC(=O)[C@@H]1CCCN1C(=O)[C@H](Cc1ccccc1)NC(=O)[C@@H]1CCCN1C(=O)[C@H](CCC(N)=O)NC(=O)[C@H](CCC(=O)O)NC(=O)[C@@H]1CCCN1C(=O)[C@H](CCC(N)=O)NC(=O)[C@H](CCC(=O)O)NC(=O)[C@@H]1CCCN1C(=O)[C@@H]1CCC(=O)N1)C(N)=O) [Peptide 11] , tested with gluten-reactive T cells.
OUTPUT: 0 % of max

---

system: gluten-reactive T cells; assay: Overnight IFNγ ELISpot assay with fresh PBMC; format: cell-based, human; conditions: Subject 10; after oral gluten challenge; Max. 11 SFU
Non-standard residues stand in square brackets, D forms with d. pGlu = O=C1CC[C@@H](C(=O)O)N1
endpoint: Percent of maximal response to individual gluten peptides, ELISp

{"substance": "(pE)QPFPEQPEQIIPQQP-amide ([pGlu]QPFPEQPEQIIPQQP-NH2; SMILES CC[C@H](C)[C@H](NC(=O)[C@H](CCC(N)=O)NC(=O)[C@H](CCC(=O)O)NC(=O)[C@@H]1CCCN1C(=O)[C@H](CCC(N)=O)NC(=O)[C@H](CCC(=O)O)NC(=O)[C@@H]1CCCN1C(=O)[C@H](Cc1ccccc1)NC(=O)[C@@H]1CCCN1C(=O)[C@H](CCC(N)=O)NC(=O)[C@@H]1CCC(=O)N1)C(=O)N[C@H](C(=O)N1CCC[C@H]1C(=O)N[C@@H](CCC(N)=O)C(=O)N[C@@H](CCC(N)=O)C(=O)N1CCC[C@H]1C(N)=O)[C@@H](C)CC) [Peptide 12]", "value": "0 % of max"}

Please examine the following record next.
INPUT: Reported Percent of maximal response to individual gluten peptides, ELISp, substance (pE)PEQPEQPFPEQPQQ-amide ([pGlu]PEQPEQPFPEQPQQ-NH2; SMILES NC(=O)CC[C@H](NC(=O)[C@H](CCC(N)=O)NC(=O)[C@@H]1CCCN1C(=O)[C@H](CCC(N)=O)NC(=O)[C@H](CCC(=O)O)NC(=O)[C@@H]1CCCN1C(=O)[C@H](Cc1ccccc1)NC(=O)[C@@H]1CCCN1C(=O)[C@H](CCC(N)=O)NC(=O)[C@H](CCC(=O)O)NC(=O)[C@@H]1CCCN1C(=O)[C@H](CCC(N)=O)NC(=O)[C@H](CCC(=O)O)NC(=O)[C@@H]1CCCN1C(=O)[C@@H]1CCC(=O)N1)C(N)=O) [Peptide 11] : ____
OUTPUT: 0 % of max
